Source: paper PMC4754833

pIC50 reference
system: HIV-1 RT mutant E138K/M184I; test: single round infection assay, E138K/M184I; format: cell-based; settings: Human immunodeficiency virus 1, E138K/M184I; ± SD, n=4
Just the number, please; pIC50 means minus log10 of the concentration in mol/L.

Examples with their reported pIC50 follow.
COc1ccc(Cn2cnc3c(Nc4ccc(C#N)cc4)nc(Nc4c(C)cc(/C=C/C#N)cc4C)nc32)cc1 [compound 12]: 8.62
Cc1cc(/C=C/C#N)cc(C)c1Nc1ncc2ncn(-c3ccc(C#N)cc3)c2n1 [compound 26]: 7.61

Please report the measured pIC50 for Cc1cc(/C=C/C#N)cc(C)c1Nc1nc(Nc2ccc(F)cc2)c2nc[nH]c2n1 [compound 17] 8.28
